Biological target: T1, hIL-18Rα ECD-Fc fusion protein (human, UniProt Q13478 22-329)
T1 construct: extracellular domain; captured on Protein A sensor
T1 sequence (looked up): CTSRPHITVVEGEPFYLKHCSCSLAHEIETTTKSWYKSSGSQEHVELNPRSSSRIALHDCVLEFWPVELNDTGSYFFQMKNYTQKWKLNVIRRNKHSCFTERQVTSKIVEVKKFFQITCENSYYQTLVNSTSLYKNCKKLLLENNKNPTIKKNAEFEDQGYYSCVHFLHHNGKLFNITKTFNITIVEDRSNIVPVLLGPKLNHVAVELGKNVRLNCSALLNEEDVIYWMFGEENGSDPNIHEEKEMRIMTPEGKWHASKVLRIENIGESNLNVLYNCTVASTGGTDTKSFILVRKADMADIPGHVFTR
Assay: BLI (Octet RED96), hIL-18Rα ECD-Fc on Protein A sensor; note: test concentration or dose not given here
Below, each entry is listed with its recorded Response (nm).
// return numeric value only (unit: nm, not printed)

Example cases with answers are listed next.
{"binder": "IL-18 variant polypeptide LM3 (ligand, soluble, E. coli-made) YFPKLRSKLSIIRNLNDQVLFIDQGNRPLFEDMTDSDCRDNAPRTIFIISMYKGSGARGMAVTISVKCEKISTLSCENKIISFKEMNPPDGIKDTKSDIIFFQRSVPGHDNKMQFESSSYEGYFLACEKERDLFKLILKKEDELGDRSIMFTVQNED", "result unit": "nm", "Response (nm)": 0.0422}
{"binder": "IL-18 variant polypeptide M15 (ligand) YFPKLRSKLSVIRNLNDQVLFIDQGNRPLFEDMTDSDCRDNAPRTIFIISMYKSSYTRGMAVTISVKCEKISTLSCENKIISFKEMNPPDGIKDTKSDIIFFQRSVPGHDNKMQFESSSYEGYFLACEKERDLFKLILKKEDELGDRSIMFTVQNED", "result unit": "nm", "Response (nm)": 0.122}
{"binder": "IL-18 variant polypeptide M35 (ligand) YFPKLRSKLSVIRNLNDQVLFIDQGNRPLFEDMTDSDCRDNAPRTIFIISMYKGSGARGMAVTISVKCEKISTLSCENKIISFKEMNPPDGIKDTKSDIIFFQRSVPGHDNKMQFESSSYEGYFLACEKERDLFKLILKKEDELGDRSIMFTVQNED", "result unit": "nm", "Response (nm)": 0.129}
{"binder": "IL-18 variant polypeptide LM4 (ligand, soluble, E. coli-made) YFPKLKSKLSVIRNLNDQVLFIDQGNRPLFEDMTDSDCRDNAPRTIFIISMYKHSYSRGMAVTISVKCEKISTLSCENKIISFKEMNPPDNIKDTKSDIIFFQRSVPGHDNKMQFESSSYEGYFLACEKERDLFKLILKKEDELGDRSIMFTVQNED", "result unit": "nm", "Response (nm)": 0.0262}
{"binder": "IL-18 variant polypeptide M25 (ligand) YFPKLRSKLSVIRNLNDQVLFIDQGNRPLFEDMTDSDCRDNAPRTIFIISMYKLSTTRGMAVTISVKCEKISTLSCENKIISFKEMNPPDRIKDTKSDIIFFQRSVPGHDNKMQFESSSYEGYFLACEKERDLFKLILKKEDELGDRSIMFTVQNED", "result unit": "nm", "Response (nm)": 0.0798}

Proceed to the following item.
Could you tell me which Response (nm) is on file for IL-18 variant polypeptide LM1 (ligand, soluble, E. coli-made) YFPKLKSKLSVIRNLNDQVLFIDQGNRPLFEDMTDSDCRDNAPRTIFIISMYKGSGARGMAVTISVKCEKISTLSCENKIISFKEMNPPDNIKDTKSDIIFFQRSVPGHDNKMQFESSSYEGYFLACEKERDLFKLILKKEDELGDRSIMFTVQNED ?
0.0618

Origin of values: patent US20260092093A1
